Reported Binding affinity (RU) values follow for various binders
Biological target: acetylcholine receptor
Assay: SPR, receptor on CM5 chip, peptide 10 µM
Unit RU implied. Number only.

The examples below pair each entry with its known result.
KRLFTR [6mer-1-117] : 142
RRWRQK [6mer-1-492] : 139
KKLIRK [6mer-1-122] : 139

Let us move to another entry and its Binding affinity (RU).
Given the entry KRLVSK [6mer-1-530] , report its measured Binding affinity (RU).
137
